tested on: A2780/DX5 cells; assay: Sulforhodamine B (SRB) cytotoxicity assay in A2780/DX5 cells; assay type: cell-based; conditions: A2780/DX5 versus A2780/WT
Please respond with reported IC50 Ratio for every item in the list.
Enter the number alone.

**Query** Which measured IC50 Ratio value corresponds to CC[C@@]1(O)C(=O)OCc2c1cc1n(c2=O)Cc2c-1nc1ccccc1c2CC[Si](C)(C)CSC(C)=O ?
**Result** 1.94

**Query** For CC[C@@]1(O)C(=O)OCc2c1cc1n(c2=O)Cc2c-1nc1ccccc1c2CC[Si](C)(C)CCCOC(=O)C1=CCNO1 , what is its reported IC50 Ratio?
**Result** 4.27

**Query** Can you look up the measured IC50 Ratio of C=C[Si](C)(C)CCc1c2c(nc3ccccc13)-c1cc3c(c(=O)n1C2)COC(=O)[C@]3(O)CC for me?
**Result** 1.68

**Query** Fill in the blank: the reported IC50 Ratio of CC[C@@]1(O)C(=O)OCc2c1cc1n(c2=O)Cc2c-1nc1ccccc1c2CC[Si](C)(C)CCCOC(=O)C1CCC1 is ____.
**Result** 3.77

----------
test system: A2780/WT (wild-type) cells; experiment: Sulforhodamine B (SRB) cytotoxicity assay in A2780/WT cells; type: cell-based; conditions: Homo sapiens; SRB assay, A2780/WT cells; read-out: A2780/WT
measured_metric: pIC50
Worth noting: pIC50 values are minus log10 of concentrations stated in mol/L.

**Query** Fill in the blank: the reported pIC50 of C=C[Si](C)(C)CCc1c2c(nc3ccccc13)-c1cc3c(c(=O)n1C2)COC(=O)[C@]3(O)CC is ____.
**Result** 7.89

----------
test system: A2780/DX5 cells; assay: Sulforhodamine B (SRB) cytotoxicity assay in A2780/DX5 cells; assay type: cell-based; conditions: Homo sapiens, A2780, read-out: A2780/DX5
measured_metric: pIC50
Friendly reminder that pIC50 comes from taking -log10 of the concentration in mol/L.

**Query** Return reported pIC50; argument: CC[C@@]1(O)C(=O)OCc2c1cc1n(c2=O)Cc2c-1nc1ccccc1c2CC[Si](C)(C)CSC(C)=O
**Result** 6.90

**Query** GET /values?readout=pIC50&item= CC[C@@]1(O)C(=O)OCc2c1cc1n(c2=O)Cc2c-1nc1ccccc1c2CC[Si](C)(C)CCCOC(=O)C1=CCNO1
**Result** 7.22

**Query** Please report the recorded pIC50 for C=C[Si](C)(C)CCc1c2c(nc3ccccc13)-c1cc3c(c(=O)n1C2)COC(=O)[C@]3(O)CC .
**Result** 7.66

**Query** Consider the compound shown here: CC[C@@]1(O)C(=O)OCc2c1cc1n(c2=O)Cc2c-1nc1ccccc1c2CC[Si](C)(C)CCCOC(=O)C1CCC1 What is its recorded pIC50?
**Result** 7.41
